test system: NCI-H23 lung; assay: NCI-60 one-dose screen, 48 h; settings: 10 µM
About 83,000 compounds went through this panel and 20% of them were active in at least one assay; those are over-represented in the sample as a whole. Activity calls are given as the source filed them. How the source made its calls: active means growth percent below 10; inactive means the rest.
Answer with one of the outcomes given here: active, inactive

{"compound": "CC1OC2CC(=O)OC2C2=C1C(=O)c1c(O)c3c(c(O)c1C2=O)C1CC(O)C3(O)C(C)O1 (stereo not given)", "group label": "active"}
{"compound": "O=C(NCCNC(=O)c1ccc(F)cc1)Nc1ccc(-n2cc(-c3ccncc3)c(-c3ccc(Cl)c(O)c3)n2)cc1", "group label": "active"}

Q) Called result for CCOC(=O)/C(=C(\C)N)C1CC(=O)NC1=O (stereo not given)
A) inactive

Q) Called result for Cc1c2c(nn1C(=O)c1nn(-c3ccc(Cl)cc3)cc1O)-c1ccccc1CC2
A) inactive

Q) Called result for COc1ccc(/C=C/c2nnc(/C=C/c3ccc(OC)c(OC)c3)o2)cc1OC
A) inactive

----------
system: HT29 colon; assay: NCI-60 one-dose screen, 48 h (100 = growth as untreated, 0 = no growth, -100 = all killed); details: 10 µM
The panel holds about 83,000 compounds, 20% with a hit somewhere; the sample as a whole holds those more often.
parameter: growth (%)
Answer in %, number only, no unit symbol.

{"molecule": "COc1ccc(C(=O)CC(CC(=O)c2ccc(OC)cc2)c2c(C)nn(-c3ccccc3)c2Cl)cc1", "unit annotation": "%", "growth": 87}

Recorded growth (molecule CCN(CC)c1ccc(/C=C2\SC(=O)C(Nc3nnc(-c4cccnc4SCc4ccccc4)o3)C2=O)cc1 (stereo not given) ): 3.09

Recorded growth (molecule CC(=O)Nc1ccc2c(c1)C(=O)c1cccc(C(=O)O)c1-2 ): 115

Recorded growth (molecule COc1ccccc1-n1c(-c2csc(NC(C)=O)n2)n[nH]c1=S ): 95.1

----------
test system: BT-549 breast; test: NCI-60 one-dose screen, 48 h; conditions: 10 µM
This is part of a sample that, as a whole, favours compounds with a hit. Of some 83,000 tested, about 20% had one in any assay. Activity calls are given as the source filed them. How the source made its calls: active means growth percent below 10; inactive means the rest.
Answer with one of the outcomes given here: 1 = active, -1 = inactive

Examples from the recorded data:
{"compound": "CC(=O)N[C@H](C(=O)N[C@@H](CCCNC(=N)N)C(=O)N[C@@H](CCCCN)C(=O)N[C@@H](CCCNC(=N)N)C(=O)N[C@]1(C)CCCCCC/C=C\\CCC[C@@](C)(C(=O)N[C@@H](CCCNC(=N)N)C(=O)N[C@@H](CCC(=O)O)C(=O)N[C@@H](CC(C)C)C(=O)N[C@H](C(=O)N[C@@H](CCC(=O)O)C(N)=O)C(C)C)NC(=O)[C@H](CCC(N)=O)NC(=O)[C@H](CC(C)C)NC(=O)[C@H](CC(C)C)NC(=O)[C@H](CCCNC(=N)N)NC(=O)[C@H](CCCNC(=N)N)NC(=O)[C@H](CC(C)C)NC1=O)C(C)C", "group label": 1}
{"compound": "CC1/C=C/C=C/C=C/C=C/C=C/C=C/C=C/C(O[C@@H]2O[C@H](C)[C@H](O)[C@@H](O)[C@@H]2N)CC(O)C(C(=O)O)C(O)CC(=O)CC(O)CC(O)CC(O)CC(=O)CCCC(=O)CC(=O)OC1C(C)CC(C)C(O)CC(=O)c1ccc(N)cc1 (some centres not stated)", "group label": 1}
{"compound": "CCOc1ccccc1/C=N\\N=C(\\N)N/N=C/c1ccccc1OCC", "group label": -1}
{"compound": "IC(I)I", "group label": -1}
{"compound": "Cc1cc(=O)n2nnc3cc(Cl)c(Cl)cc3n12", "group label": -1}

Q) Called result for Cc1ccc(Cl)cc1NC(=O)CCl
A) -1

Q) Called result for CCOC(=O)C1=CSC2=NC3=C(CCC/C3=C\c3ccc(Cl)cc3)C(c3ccc(Cl)cc3)N12 (configuration not stated)
A) -1

----------
tested on: RPMI-8226 leukemia; assay: NCI-60 one-dose screen, 48 h (100 = growth as untreated, 0 = no growth, -100 = all killed); settings: 10 µM
Compounds without any hit were thinned out: in the full panel of roughly 83,000, 20% have a hit. Calls of active or inactive are those of the source. The calls were made as follows: active = growth percent below 10; inactive = the rest.
Each record here notes measured growth.

{"compound": "Cc1cc(SCc2ccccc2)nc(N)n1", "assay target": "RPMI-8226 leukemia", "growth": "105% (inactive)"}

Recorded growth (compound CC(C)(C)c1nn(-c2ccccc2)c2c1CC1(CN2Cc2ccc(Cl)cc2)C(=O)c2ccccc2C1=O ): 59.5% (inactive)

Recorded growth (compound CCOC(=O)C1C(C(=O)OCC)C2C(=O)C3C(C(=O)OCC)C(C(=O)OCC)C3C(=O)C12 (stereo unspecified) ): 101% (inactive)

Recorded growth (compound CN(C)c1ccc(/C=N/NC(=O)c2ccccc2Nc2cccc(C(F)(F)F)c2)cc1 ): 76.8% (inactive)

Recorded growth (compound COc1cc(/C=C2\CCCC3=C2N=C2SC(C)=CN2C3c2cc(OC)c(OC)c(OC)c2)cc(OC)c1OC (stereo unspecified) ): -17% (active)

Recorded growth (compound OCC1OC2C(NC(=S)N2c2ccccc2)C(O)C1O (stereo unspecified) ): 97.1% (inactive)

Recorded growth (compound S=C(NCc1ccccc1)NCc1ccccc1 ): 100% (inactive)

----------
Test system: KM12 colon
Experiment: NCI-60 one-dose screen, 48 h
Conditions: 10 µM
Protocol: Growth inhibition of the KM12 human tumor cell line is measured as a screen for anti-cancer activity. Cells are grown in 96 well plates and exposed to the test compound for 48 hours. Compounds are tested at a single concentration, which is 10^-5 M for most compounds. The reported endpoint is percent growth (GI% or GIPRCNT), where numbers from 0 - 100% represent growth inhibition, and numbers from -100% - 0 represent cell death. For example, a value of 40 represents 60% growth inhibition. […]
Compounds without any hit were thinned out: in the full panel of roughly 83,000, 20% have a hit. Calls of active or inactive are those of the source. Rule for the calls: active = growth percent below 10; inactive = the rest.
Answer with one of the outcomes given here: active, inactive

Examples from the recorded data:
{"compound": "COc1ccc(-c2nnc(SCC(=O)Nc3ccc(C(=O)/C=C/c4ccccc4)cc3)n2-c2ccccc2)cc1OC", "assay target": "KM12 colon", "group label": "inactive"}
{"compound": "NC1=NC(c2ccc(Cl)cc2)C2=C(N1)/C(=C/c1ccc(Cl)cc1)CCC2 (stereo not given)", "assay target": "KM12 colon", "group label": "active"}
{"compound": "CCOC(=O)CC(S(=O)(=O)c1ccccc1)S(=O)(=O)c1ccccc1", "assay target": "KM12 colon", "group label": "inactive"}

Q) Called result for CNC(=O)c1c(I)c(NC(C)=O)c(I)c(C(=O)O)c1I
A) inactive

Q) Called result for N#Cc1c(-c2ccc(Cl)cc2)csc1NC(=O)Nc1ccc(Cl)c(C(F)(F)F)c1
A) inactive

Q) Called result for COc1cc2cc(Oc3ccc(NC(=O)c4ccccc4)cc3)c(C)nc2cc1OC
A) inactive

----------
system: UACC-62 melanoma; experiment: NCI-60 one-dose screen, 48 h (100 = growth as untreated, 0 = no growth, -100 = all killed); conditions: 10 µM
The panel holds about 83,000 compounds, 20% with a hit somewhere; the sample as a whole holds those more often.
Each record here notes measured growth.
Answer in %, number only, no unit symbol.

Worked cases, answers included:
{"molecule": "COc1cc2c(Nc3ccc(S(N)(=O)=O)cc3)ncnc2c(OC)c1OC", "data value": 97.4}
{"molecule": "O=C(CSc1nnc(-c2cccnc2SCc2ccccc2)o1)Nc1nc(Cl)cc(Cl)n1", "data value": 101}
{"molecule": "Cc1c(Cl)cccc1NC(=O)CN1CCOCC1", "data value": 103}

Recorded growth (molecule COc1cc(-c2nn(-c3cccc(NC(=O)NCCNS(=O)(=O)c4ccc(Cl)cc4)c3)cc2-c2ccncc2)ccc1Cl ): 25.6

----------
test system: K-562 leukemia; test: NCI-60 one-dose screen, 48 h (100 = growth as untreated, 0 = no growth, -100 = all killed); conditions: 10 µM
This is part of a sample that, as a whole, favours compounds with a hit. Of some 83,000 tested, about 20% had one in any assay. Calls of active or inactive are those of the source. How the source made its calls: active means growth percent below 10; inactive means the rest.
Each record here notes measured growth.

Worked cases, answers included:
{"compound": "COc1cc2cc(Oc3ccc(NC(=O)c4ccccc4)cc3)c(C)nc2cc1OC", "growth": "88.1% (inactive)"}
{"compound": "C=CCN(CC=C)C(=O)[C@H](CC)[C@@H]1CC[C@@H](C)[C@@H]([C@H](C)[C@@H](O)[C@@H](C)C(=O)[C@H](CC)C2O[C@]3(C=CC(=O)[C@]4(CC[C@@](C)([C@H]5CC[C@](O)(CC)[C@H](C)O5)O4)O3)[C@H](C)C[C@@H]2C)O1 (some centres undefined)", "growth": "18.7% (inactive)"}
{"compound": "Nc1nc(Cn2c(-c3nonc3N)nc3ccccc32)nc(N2CCCCC2)n1", "growth": "49.3% (inactive)"}

Now let's try a different one.
Recorded growth (compound O=S(=O)(Oc1ccc(-c2ccc3sccc3c2)cc1)c1ccccc1 ): 89.6% (inactive)
